- System under test: KRasG12C (M1-K169, biotinylated on the N-terminus) (Homo sapiens (Human), UniProt P01116, G12C)
- Assay explanation: Covalent competition assay (scintillation proximity assay, competition with radiolabeled covalent probe Compound B)
- Assay type: binding
- Measurement parameters: in vitro KRASG12C activity; 10 nM KRasG12C:GDP, 25 nM radio-ligand and 475 nM unlabelled ligand, incubated 2 hours; read-out: Covalent Competition Assay IC50
# pIC50 annotations
Bear in mind: pIC50 is minus log10 of a mol/L concentration; give just that figure.

Compound	pIC50
C=CC(=O)N1CC2(CC(n3nc(-c4ccc5nn(CCN6CC[C@H](F)C6)cc5c4)c(-c4c(Cl)c(C)cc5[nH]ncc45)c3C)C2)C1 (single isomer, unassigned) [Example 80b]	8.10

Exercise: Which pIC50 reading was recorded for the compound C=CC(=O)N1CC2(CC(n3nc(-c4cnc(N)c(F)c4)c(-c4c(Cl)c(C)cc5[nH]ncc45)c3C)C2)C1 (single isomer, unassigned) [Example 20a] ?
Key: 6.83

Exercise: Which pIC50 reading was recorded for the compound C=CC(=O)N1CC2(CC(n3nc(-c4ccc(N5CCN(C)C5=O)cc4)c(-c4c(Cl)c(C)cc5[nH]ncc45)c3C)C2)C1 (single isomer, unassigned) [Example 13b] ?
Key: 4.83

====

- System under test: KRasG12C (M1-K169, biotinylated on the N-terminus) (Homo sapiens (Human), UniProt P01116, G12C)
- Assay explanation: Covalent competition assay (scintillation proximity assay, competition with radiolabeled covalent probe Compound B)
- Type: binding
- Measurement parameters: in vitro KRASG12C activity; 10 nM KRasG12C:GDP, 25 nM radio-ligand and 475 nM unlabelled ligand, incubated 2 hours; read-out: Covalent Competition Assay IC50
Rule for this label: Satisfied means IC50 is less than 300 nM; Not satisfied means IC50 is at least 300 nM.

Worked examples, 8 molecules total:
Molecule	Cat
C=CC(=O)N1CC2(CC(n3nc(-c4cnn5c4CCC5)c(-c4c(Cl)c(C)cc5[nH]ncc45)c3C)C2)C1 (single isomer, unassigned) [Example 34a]	Not satisfied
C=CC(=O)N1CC2(CC(n3nc(-c4ccc5nn(CC(C)(C)O)cc5c4)c(-c4c(Cl)c(C)cc5[nH]ncc45)c3C)C2)C1 (single isomer, unassigned) [Example 42b]	Not satisfied
C=CC(=O)N1CC2(CC(n3nc(-c4cc5cn(C)nc5cn4)c(-c4c(Cl)c(C)cc5[nH]ncc45)c3C)C2)C1	Satisfied
C=CC(=O)N1CC2(CC(n3nc(-c4cccnc4)c(-c4c(Cl)c(Cl)cc5[nH]ncc45)c3C(F)F)C2)C1 (single isomer, unassigned) [Example 85a]	Not satisfied
C=CC(=O)N1CC2(CC(n3nc(-c4cscn4)c(-c4c(Cl)c(C)cc5[nH]ncc45)c3C)C2)C1 (single isomer, unassigned) [Example 51b]	Not satisfied
C=CC(=O)N1CC2(CC(n3nc(-c4ccc5cnccc5c4)c(-c4c(Cl)c(C)cc5[nH]ncc45)c3C)C2)C1 (single isomer, unassigned) [Example 25a]	Satisfied
C=CC(=O)N1CC2(CC(n3nc(-c4ccc(CN5CCCS5(=O)=O)cc4)c(-c4c(Cl)c(C)cc5[nH]ncc45)c3C)C2)C1 (single isomer, unassigned) [Example 5b]	Not satisfied
C=CC(=O)N1CC2(CC(n3nc(-c4ccc5c(cnn5CCN5CCOCC5)c4)c(-c4c(Cl)c(C)cc5[nH]ncc45)c3C)C2)C1 (single isomer, unassigned) [Example 17b]	Not satisfied

Exercise: Is IC50 strictly under 300 nM for the entry C=CC(=O)N1CC2(CC(n3nc(-c4ccc(C#N)nc4)c(-c4c(Cl)c(C)cc5[nH]ncc45)c3C)C2)C1 (single isomer, unassigned) [Example 11a] ?
Key: Not satisfied

Exercise: Is IC50 strictly under 300 nM for the entry C=CC(=O)N1CC2(CC(n3nc(-c4cccnc4)c(-c4c(Cl)c(C)cc5[nH]ncc45)c3C)C2)C1 (single isomer, unassigned) [Example 27a] ?
Key: Satisfied

Exercise: Is IC50 strictly under 300 nM for the entry C=CC(=O)N1CC2(CC(n3nc(-c4ccc5ncnn5c4)c(-c4c(Cl)c(C)cc5[nH]ncc45)c3C)C2)C1 (single isomer, unassigned) [Example 23a] ?
Key: Not satisfied

Exercise: Is IC50 strictly under 300 nM for the entry C=CC(=O)N1CC2(CC(n3nc(-c4cccnc4C)c(-c4c(Cl)ccc5[nH]ncc45)c3C)C2)C1 (single isomer, unassigned) [Example 89a] ?
Key: Not satisfied

Exercise: Is IC50 strictly under 300 nM for the entry C=CC(=O)N1CC2(CC(n3nc(-c4c(C)cncc4C)c(-c4c(Cl)c(C)cc5[nH]ncc45)c3C)C2)C1 (single isomer, unassigned) [Example 74b] ?
Key: Not satisfied

Exercise: Is IC50 strictly under 300 nM for the entry C=CC(=O)N1CC2(CC(n3nc(-c4ccc5c(c4)CN(C)C(=O)C5)c(-c4c(Cl)c(C)cc5[nH]ncc45)c3C)C2)C1 (single isomer, unassigned) [Example 21b] ?
Key: Not satisfied

Exercise: Is IC50 strictly under 300 nM for the entry C=CC(=O)N1CC2(CC(n3nc(-c4ccnn4CC4CC4)c(-c4c(Cl)c(C)cc5[nH]ncc45)c3C)C2)C1 (single isomer, unassigned) [Example 45b] ?
Key: Not satisfied

====

# pIC50 annotations
- System under test: KRasG12C (M1-K169, biotinylated on the N-terminus) (Homo sapiens (Human), UniProt P01116, G12C)
- Assay explanation: Covalent competition assay (scintillation proximity assay, competition with radiolabeled covalent probe Compound B)
- Assay type: binding
- Measurement parameters: in vitro KRASG12C activity; 10 nM KRasG12C:GDP, 25 nM radio-ligand and 475 nM unlabelled ligand, incubated 2 hours; read-out: Covalent Competition Assay IC50
Bear in mind: pIC50 is minus log10 of a mol/L concentration; give just that figure.

Compound	pIC50
C=CC(=O)N1CC2(CC(n3nc(-c4cncc(C#N)c4)c(-c4c(Cl)c(C)cc5[nH]ncc45)c3C)C2)C1 (single isomer, unassigned) [Example 10a]	5.92

Exercise: Which pIC50 reading was recorded for the compound C=CC(=O)N1CC2(CC(n3nc(-c4ccccn4)c(-c4c(Cl)c(C)cc5[nH]ncc45)c3C)C2)C1 (single isomer, unassigned) [Example 46a] ?
Key: 6.37

Exercise: Which pIC50 reading was recorded for the compound C=CC(=O)N1CC2(CC(n3nc(-c4ccc5c(cnn5CCN(C)C)c4)c(-c4c(Cl)c(C)cc5[nH]ncc45)c3C)C2)C1 (single isomer, unassigned) [Example 15b] ?
Key: 5.32

====

- System under test: KRasG12C (M1-K169, biotinylated on the N-terminus) (Homo sapiens (Human), UniProt P01116, G12C)
- Assay explanation: Covalent competition assay (scintillation proximity assay, competition with radiolabeled covalent probe Compound B)
- Type: binding
- Measurement parameters: in vitro KRASG12C activity; 10 nM KRasG12C:GDP, 25 nM radio-ligand and 475 nM unlabelled ligand, incubated 2 hours; read-out: Covalent Competition Assay IC50
# pIC50 annotations
Bear in mind: pIC50 is minus log10 of a mol/L concentration; give just that figure.

Compound	Property measured	Endpoint value
C=CC(=O)N1CC2(CC(n3nc(-c4ccc(C(=O)N(C)CCOC)cc4)c(-c4c(Cl)c(C)cc5[nH]ncc45)c3C)C2)C1 (single isomer, unassigned) [Example 66b]	pIC50	5.37
C=CC(=O)N1CC2(CC(n3nc(-c4ccc(C(=O)O)cc4)c(-c4c(Cl)c(C)cc5[nH]ncc45)c3C)C2)C1 (single isomer, unassigned) [Example 68a]	pIC50	7.23
C=CC(=O)N1CC2(CC(n3nc(-c4ccc5c(cnn5CCO)c4)c(-c4c(Cl)c(C)cc5[nH]ncc45)c3C)C2)C1 (single isomer, unassigned) [Example 83b]	pIC50	5.40

Okay, now this compound:
Exercise: Which pIC50 reading was recorded for the compound C=CC(=O)N1CC2(CC(n3nc(-c4cnc5c(ccn5C)c4)c(-c4c(Cl)c(C)cc5[nH]ncc45)c3C)C2)C1 (single isomer, unassigned) ?
Key: 5.54

====

- System under test: KRasG12C (M1-K169, biotinylated on the N-terminus) (Homo sapiens (Human), UniProt P01116, G12C)
- Assay explanation: Covalent competition assay (scintillation proximity assay, competition with radiolabeled covalent probe Compound B)
- Format: binding
- Measurement parameters: in vitro KRASG12C activity; 10 nM KRasG12C:GDP, 25 nM radio-ligand and 475 nM unlabelled ligand, incubated 2 hours; read-out: Covalent Competition Assay IC50
# pIC50 annotations
Bear in mind: pIC50 is minus log10 of a mol/L concentration; give just that figure.

Exercise: Which pIC50 reading was recorded for the compound C=CC(=O)N1CC2(CC(n3nc(-c4ccc5nnccc5c4)c(-c4c(Cl)c(C)cc5[nH]ncc45)c3C)C2)C1 (single isomer, unassigned) [Example 71a] ?
Key: 7.00

Exercise: Which pIC50 reading was recorded for the compound C=CC(=O)N1CC2(CC(n3nc(-c4ccc(NCCOC)cc4F)c(-c4c(Cl)c(C)cc5[nH]ncc45)c3C)C2)C1 (single isomer, unassigned) [Example 61a] ?
Key: 7.57

Exercise: Which pIC50 reading was recorded for the compound C=CC(=O)N1CC2(CC(n3nc(-c4ccc5c(c4)CS(=O)(=O)C5)c(-c4c(Cl)c(C)cc5[nH]ncc45)c3C)C2)C1 (single isomer, unassigned) [Example 72a] ?
Key: 6.51

Exercise: Which pIC50 reading was recorded for the compound C=CC(=O)N1CC2(CC(n3nc(-c4ccc(-n5ccc(N)n5)nc4)c(-c4c(Cl)c(C)cc5[nH]ncc45)c3C)C2)C1 ?
Key: 6.49

Exercise: Which pIC50 reading was recorded for the compound C=CC(=O)N1CC2(CC(n3nc(-c4ccc(C(=O)NCCOC)c(F)c4)c(-c4c(Cl)c(C)cc5[nH]ncc45)c3C)C2)C1 (single isomer, unassigned) [Example 63a] ?
Key: 7.06
